Data origin: patent US20190241669A1

Target: Human BCMA (human) (UniProt Q02223)
Experiment: SPR, IgG on chip, huBCMA analyte
# reported kon; entries follow
Value expressed in M⁻¹ s⁻¹; do not type the unit.

// solved cases for kon follow
INSERT INTO assay_data (binder, reported_property, data_value) VALUES
  ('A02_Rd4_0.6nM_C03 (antibody, V domains shown, IgG) VH: EVQLLESGGGLVQPGGSLRLSCAASGFTFSSYAMNWVRQAPGKGLEWVSAISDSGGSKWYADSVKGRFTISRDNSKNTLYLQMNSLRAEDTAVYYCARYWPMSLWGQGTLVTVSS VL: EIVLTQSPGTLSLSPGERATLSCRASQSVSSSYLAWYQQKPGQAPRLLMYDASIRATGIPDRFSGSGSGTDFTLTISRLEPEDFAVYYCQQYFTWPLTFGQGTKVEIK', 'kon', '4.27e+06'),
  ('A02_Rd4_6nM_C05 (antibody, V domains shown, IgG) VH: EVQLLESGGGLVQPGGSLRLSCAASGFTFSSYAMNWVRQAPGKGLEWVSAIFASGGSTYYADSVKGRFTISRDNSKNTLYLQMNSLRAEDTAVYYCARYWPMTPWGQGTLVTVSS VL: EIVLTQSPGTLSLSPGERATLSCRASQSVSSSYLAWYQQKPGQAPRLLMYDASIRATGIPDRFSGSGSGTDFTLTISRLEPEDFAVYYCQQYQRWPLTFGQGTKVEIK', 'kon', '3.1e+06'),
  ('A02_Rd4_6nM_C19 (antibody, V domains shown, IgG) VH: EVQLLESGGGLVQPGGSLRLSCAASGFTFSSYAMNWVRQAPGKGLEWVSAISDSGGSRWYADSVKGRFTISRDNSKNTLYLQMNSLRAEDTAVYYCARYWPMSDWGQGTLVTVSS VL: EIVLTQSPGTLSLSPGERATLSCRASQSVSVLYLAWYQQKPGQAPRLLMYDASIRATGIPDRFSGSGSGTDFTLTISRLEPEDFAVYYCQQYLAWPLTFGQGTKVEIK', 'kon', '3e+06'),
  ('A02_Rd4_6nM_C16 (antibody, V domains shown, IgG; also called P5AC16; P5A16) VH: EVQLLESGGGLVQPGGSLRLSCAASGFTFSSYAMNWVRQAPGKGLEWVSAISDFGGSTYYADSVKGRFTISRDNSKNTLYLQMNSLRAEDTAVYYCARYWPMDIWGQGTLVTVSS VL: EIVLTQSPGTLSLSPGERATLSCRASQSVSDLYLAWYQQKPGQAPRLLMYDASIRATGIPDRFSGSGSGTDFTLTISRLEPEDFAVYYCQQYQTWPLTFGQGTKVEIK', 'kon', '1.56e+06');

Problem: Return reported kon. Input binder: COMBO_Rd4_6nM_C11 (antibody, V domains shown, IgG) VH: EVQLLESGGGLVQPGGSLRLSCAASGFTFSSYPMSWVRQAPGKGLEWVSAIGGSGGSLGYADSVKGRFTISRDNSKNTLYLQMNSLRAEDTAVYYCARYWPMDSWGQGTLVTVSS VL: EIVLTQSPGTLSLSPGERATLSCRASQSVSPLYLAWYQQKPGQAPRLLMYDASIRATGIPDRFSGSGSGTDFTLTISRLEPEDFAVYYCQQYKAWPLTFGQGTKVEIK
Result: 6.74e+06

Problem: Return reported kon. Input binder: P5C1_VHVL (antibody, V domains shown, IgG; also called PC1) VH: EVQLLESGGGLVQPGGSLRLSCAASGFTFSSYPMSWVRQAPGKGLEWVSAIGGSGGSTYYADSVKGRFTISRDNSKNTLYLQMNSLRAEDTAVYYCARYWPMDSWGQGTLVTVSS VL: EIVLTQSPGTLSLSPGERATLSCRASQSVSSTYLAWYQQKPGQAPRLLIYDASSRAPGIPDRFSGSGSGTDFTLTISRLEPEDFAVYYCQQYSTSPLTFGQGTKVEIK
Result: 1.16e+07

Problem: Return reported kon. Input binder: C01_Rd4_0.6nM_C27 (antibody, V domains shown, IgG) VH: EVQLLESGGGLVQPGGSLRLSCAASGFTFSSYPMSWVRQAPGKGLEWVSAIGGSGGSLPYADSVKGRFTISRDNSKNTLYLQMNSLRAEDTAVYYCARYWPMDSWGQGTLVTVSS VL: EIVLTQSPGTLSLSPGERATLSCRASQSVSSTYLAWYQQKPGQAPRLLIYDASSRAPGIPDRFSGSGSGTDFTLTISRLEPEDFAVYYCQQYSRWPLTFGQGTKVEIK
Result: 1.23e+07

Problem: Return reported kon. Input binder: COMBO_Rd4_0.6nM_C02 (antibody, V domains shown, IgG) VH: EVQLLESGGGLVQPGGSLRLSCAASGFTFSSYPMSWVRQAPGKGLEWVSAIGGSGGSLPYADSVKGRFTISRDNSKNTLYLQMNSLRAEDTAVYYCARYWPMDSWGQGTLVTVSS VL: EIVLTQSPGTLSLSPGERATLSCRASIAVSSTYLAWYQQKPGQAPRLLMYDASIRATGIPDRFSGSGSGTDFTLTISRLEPEDFAVYYCQQYMVWPLTFGQGTKVEIK
Result: 8.57e+06

Problem: Return reported kon. Input binder: A02_Rd4_0.6nM_C06 (antibody, V domains shown, IgG) VH: EVQLLESGGGLVQPGGSLRLSCAASGFTFSSYAMNWVRQAPGKGLEWVSAISDSGGSAWYADSVKGRFTISRDNSKNTLYLQMNSLRAEDTAVYYCARYWPMSLWGQGTLVTVSS VL: EIVLTQSPGTLSLSPGERATLSCRASQSVSVLYLAWYQQKPGQAPRLLMYDASIRATGIPDRFSGSGSGTDFTLTISRLEPEDFAVYYCQQYQRWPLTFGQGTKVEIK
Result: 3.49e+06

Problem: Return reported kon. Input binder: COMBO_Rd4_0.6nM_C11 (antibody, V domains shown, IgG) VH: EVQLLESGGGLVQPGGSLRLSCAASGFTFSSYPMSWVRQAPGKGLEWVSAALGSGGSTYYADSVKGRFTISRDNSKNTLYLQMNSLRAEDTAVYYCARYWPMSLWGQGTLVTVSS VL: EIVLTQSPGTLSLSPGERATLSCRASQSVSVRYLAWYQQKPGQAPRLLMYDASIRATGIPDRFSGSGSGTDFTLTISRLEPEDFAVYYCQQYGSWPITFGQGTKVEIK
Result: 5.11e+06
